METHOD NOTES: yeast display, Sf9 membrane polyspecificity reagent, FACS + sequencing; frameworks hold sequencing errors
ENDPOINT: polyreactivity (PSR sort gate)

MACROMOLECULE SEQUENCE	VALUE OBSERVED
QVQLVESGGGLVQAGGSLRLSCAASGIIIDSNAMGWYRQAPGKERELVAAITSGGSTKYADSVKGRFTISRDNAKNTVYLQMNSLKPEDTAVYYCNADFRQADQCSYFYEMDSWGQGTQVTVSS	low polyreactivity
QVQLVESGGLLVQAGGSIRLRCDASGIILRGYSLGWYRQAPGKERELVASISRGGSTNYADSVKGRFTISRDNAKTTVYLQMNSLKPEDTAVYSCNARGCNGRSDYDYWGLGTQVTVSS	high polyreactivity
QVQLVESGGGLVQAGGSLRLICAASGGIIYWNAMGWYRQAPGKERELVATITRSGGSTYYADSVKGRFTISRDNAKNTVYLQMNSLKPEDTAVYYCAARSYYRFDYWGQGTQVTVSS	high polyreactivity
QVQHVESGGGLVQAGGSLRLSCAASGSIFSIYAMGWYRQAPGKEREFVASITVTDGSTYYADSVKGRFTISRDNAKNTVYLQMNSLKPEDTAVYYCFAVDWYGSGSSYRGSVTYWGQGTQVTVSS	low polyreactivity
QVQLVESGGGLVQAGGSLRLSCTASGITSGSYAMGWYRQAPGKERELVAAISNSGSTYYADSVKGRFTISRDNAKNSVYLQMNSLKPEDTAVYYCNADDWWGGYDYWGQGTQVTVSS	low polyreactivity
QVQLVESAGGLVQAGGSLRLSCAASGSSLGYYAMGWYRQAPGKERELVADIDNGTSTYYADSVKGRFTISRDNAKNTVYLQMNSLKQEDTAVYYCAADYYSRYLQSYYWGQGTQVTVSS	low polyreactivity
QVQLVESGGGLVQAGGSLRLSCAASGFIFFGYAMGWYRQAPGKERELVAAITSGGSTYYADSVKGRFTISRDNAKNTVYLQMNSLKPEDTAVYYCAAVRWYGSKRYGYWGQGTQVTVSS	high polyreactivity
QVQLVESGGGLVQAGGSLRLSCAASGSTITSNAMGWYRQAPGKERELVAAINTSGGSTYYADSVKGRFTISRDNAKNTVYLQMNSLKPEDTAVYYCNADYGGDEYRGLEFDYWGQGTQVTVSS	low polyreactivity
QVQLVESGGGLVQAGGSLRLSCAASGSIFGRNDMGWYRQAPGKERELVAAISGDTTTNYADSVKGRFTISRDNAKNTVYLQMNSLKPEDTAVYYCNRYSGGRWYPEYYYWGQGTQVTVSS	high polyreactivity
QVQLVESGGGLVQAGGSLRLSCAASAWYAMGWYRQAPGKEREFVAAITFSGSSTYYADSVKGRFTISRDNAKNTVYLQMNSLKPEDTAVYYCNADWWEWGQGTQVTVSS	low polyreactivity
QVQLQESGGGLVLAGGSLRLSCSASGNISFYGSMGWYRQAPGKESEFVATIDPGTNTNYADSVKDRFTISRDNAKNTVYLQMNSLKPEDTAVYYCAVEAGSDWPYRYWGQGTQVTVSS	low polyreactivity
QVQLVESGGGLVQAGGSLRLSCAASGFIFRGYAMGLYRQAPGKERELVAAISKSGGSTYYADSVKGRFTISRDNAKNTVYLQMNSLKPEDTAVYYCATDILIDGFYYDYWGQGTQVTVSS	high polyreactivity
QVQLVESGGGLVQAGGSLRLSCAASGFIFPVYTMGWSRQAPGKERELVGAITQIGGSTHYADSVKGRFSISRDNAKNTVYIQMNSLTPDDTAVYYCNAVPSYGTEYDYWGQGTHVTVSS	low polyreactivity
QVQLVESGGGLVQAGGSLRLSCAASGSIVRYNTMGWYRQAPGKERELVASIRIGGSTYYADSVKGRFTISRDNAKNTVYLQMNSLKAEDTAVYYCAVRPYRSAGGSVTRGAYYYWGQGTQVTVSS	high polyreactivity
QVQLVESGGGLVQAGGSLRLSCAASGSTFYYYAMGWYRQAPGKERELVASITTGGGSTYYADSVKGRFTISRDYAKNTVYLQMNSLKPEDTAVYYCAAALAYYYWWYDYWGQGTQVTVSS	low polyreactivity
QVQLVESGGGLVQAGGSLRLSCAASGRTFWYYAMGWYRQAPGKERELVAGITFTGGRTYYADSVKGRFTISRDNAKNTVYLQMNSLKPEDTAVYYCAKATEYYAESDDYDYWGQGTQVTVSS	low polyreactivity
QVQLVESGGGLVQAGGSLRLSCAASGSIFISYVMGWYRQAPAKERELVASISWSGGSTYYADSVKGRFTISRDNAKNTVYLQMNSLKPEDTAVYYCAADRLVRIRSYRDLGYWGQGTQVTVSS	high polyreactivity
QVQLVDSGGGLVQAGGSLRLSCAASGITFGRYAMGWYRQAPGKERELVATITVNGGRTYYADSVKGRFTISRDNAKNTVYLQMNSLKPEDTAVYYCAAESAVDFDYWGQGTQVTVSS	low polyreactivity
QVQLGESGGGLVQAGGSLRLSCAASGLIFPRYAMGWYRQAPGKERELVAAITRGGSTYYADSVKGRFTISRDNAKNTVYVQMNSLKPEDSAVYYCNDELPVHWSWYDYWGQGTQVTVSS	low polyreactivity
QVQLVESGGGLVQAGGSLRLSCAASGSIFADNAMGWDRQAPGKERELVAAISRTGGSTYYADSVKGRFTISRDNSKNTVYLQMNSLKPEDTAVYYCAADNGYGRYRRYYYWGQGTQVTVSS	high polyreactivity
QVQLVESGGGLVQAGGSLRLSCAASGSNFQYYGMGWYRQAPGKERELVASISRSGGSTYYADSVKGRFTISRDNAKNTVYLQMNSLKPEDTAVYYCNAKEAIRRTHLTTTYRDGYWGQGTQVTVSS	low polyreactivity
